These measurements were taken from the supplement of paper PMC10567573.

B1: MYOZ1 (parent)
chain: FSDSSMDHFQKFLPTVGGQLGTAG

Variants of: B1
test.description: protein stability index of a GFP-peptide fusion (GPS, HEK-293T) (PSI 1-6); higher = more stable;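 note: lentivirally expressed fusions sorted by FACS into six bins by GFP to DsRed ratio, PSI derived from sequencing read proportions per bin multiplied by bin number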
condition.notes: c terminus: a fixed tail appended
Please go through the items and note down their protein stability index.
The reply should be a number, written without any unit.

Entry under test: FADSSMDHFQKFLPTVGGQLGTAG [S2A] . Its protein stability index was 1.77

Lookup result for FSDSSMDHFQKFLPTVGGMLGTAG [Q19M] ; measured protein stability index: 2.03

Recorded result, FSDSSMDHFQKFLPEVGGQLGTAG [T15E] , protein stability index: 2.5

Reported protein stability index ( FSDSSMDHFQKFLPTVGLQLGTAG [G18L] ) = 2.3

response.value for FSDSSMDHFQKFLPTVGGQLGAAG [T22A] (field: protein stability index) = 2.29

Short answer for FSDSSMDHFQKFLPTVGGQLGTPG [A23P] : protein stability index was 2.22

The variant identified as ISDSSMDHFQKFLPTVGGQLGTAG [F1I] registered its protein stability index at 2.92

Query FCDSSMDHFQKFLPTVGGQLGTAG [S2C] yields protein stability index of 1.5

For this variant ( FSDSMMDHFQKFLPTVGGQLGTAG [S5M] ), measured protein stability index is 1.82

Lab note: FSDSSMDHFQKDLPTVGGQLGTAG [F12D] gave protein stability index of 4.08

Noted for FSDSSMDHFQKFLPTVGGQLGTAC [G24C] : its protein stability index reads 1.95

Noted for FSDSSMDHFQKFLPTVGGQLGTAY [G24Y] : its protein stability index reads 1.2

Looking up FSDSSMDVFQKFLPTVGGQLGTAG [H8V] , I see its protein stability index listed as 1.76

The measured protein stability index associated with FSDSSMDSFQKFLPTVGGQLGTAG [H8S] reads 1.53

For FSDSSMDHFQKFLPVVGGQLGTAG [T15V] the variant record lists protein stability index as 2.66

The variant identified as FSDSSMDHFQKFLPTVGGQLATAG [G21A] registered its protein stability index at 1.87

Measured protein stability index of FSDSSMDHFQKFLPTVTGQLGTAG [G17T] : 2.56

What the record says about FSDSSMDHIQKFLPTVGGQLGTAG [F9I] : protein stability index is 2.46

// protein stability index value for NSDSSMDHFQKFLPTVGGQLGTAG [F1N] : 3.23

// sample FSDSSMDHKQKFLPTVGGQLGTAG [F9K] , its protein stability index was 3.09

According to the records, this variant FSDSSMDHFQKFLPTVGGQLGTYG [A23Y] displays protein stability index of 2.19

Entry under test: FSDVSMDHFQKFLPTVGGQLGTAG [S4V] . Its protein stability index was 3.14

Lookup result for FSDSSMDHFQKFLPTVGGQLGNAG [T22N] ; measured protein stability index: 2.54

Looking up FSDSSMDHFQKFLPTIGGQLGTAG [V16I] , I found its protein stability index recorded as 2.13

According to the records, this variant FSDSSMDHVQKFLPTVGGQLGTAG [F9V] displays protein stability index of 3.71

Sure, the documented protein stability index for FSDSSEDHFQKFLPTVGGQLGTAG [M6E] is 3

Documented protein stability index of FSDSSMDHFQKFLPTSGGQLGTAG [V16S] : 2.94

In plain terms, FSDSSMDHFQDFLPTVGGQLGTAG [K11D] has a documented protein stability index of 3.32

Value of protein stability index reported for the variant FSDSSMDHQQKFLPTVGGQLGTAG [F9Q] is 3.88

The recorded protein stability index for FSDSSMDHFQKFLPTVGWQLGTAG [G18W] is 1.85

For record FSDSSMDHFQKFLPTVGGQLVTAG [G21V] the listed protein stability index is 1.75

Item: FSDSSMDHFQKFLPTVGGNLGTAG [Q19N] | protein stability index: 2.08

FSDSSMDTFQKFLPTVGGQLGTAG [H8T] has a reported protein stability index of 2.51

Noted for FSDSSMDHFQKFLPTCGGQLGTAG [V16C] : its protein stability index reads 2.38

Given item FSDNSMDHFQKFLPTVGGQLGTAG [S4N] , the value recorded as its protein stability index is 2.32

Reported protein stability index of FSDSSMDHFQKFLPTVGGQLFTAG [G21F] : 1.62

Per the records, this variant ( FHDSSMDHFQKFLPTVGGQLGTAG [S2H] ) has protein stability index equal to 1.5

Value of measured protein stability index for the entry FSDSSMPHFQKFLPTVGGQLGTAG [D7P] : 2.38

Query FSDSSMDHFQKFLPTVGGQLRTAG [G21R] yields protein stability index of 2.25

Memo: FSDSSMDHFYKFLPTVGGQLGTAG [Q10Y] , reported protein stability index: 1.47

Memo: FSDSSMDHFQKFLPTVGGQLGIAG [T22I] , reported protein stability index: 2.57

Entry FSDSSMDHFQKFLPTVGGQLGTEG [A23E] ; protein stability index = 2.92

Short answer for FSDSSYDHFQKFLPTVGGQLGTAG [M6Y] : protein stability index was 2.32

In plain terms, FSDSSMDHFQKFLPTVGGQLGTNG [A23N] has a documented protein stability index of 2.68

// sample FSDESMDHFQKFLPTVGGQLGTAG [S4E] , its protein stability index was 2.94

Record summary for FSDSSMDHFQYFLPTVGGQLGTAG [K11Y] : reported protein stability index = 2.15

Record FSDSSMDHFQKFLPTKGGQLGTAG [V16K] , field protein stability index: 2.64

Entry FYDSSMDHFQKFLPTVGGQLGTAG [S2Y] ; protein stability index = 1.83

Per the records, this variant ( FLDSSMDHFQKFLPTVGGQLGTAG [S2L] ) has protein stability index equal to 3.52

Short answer for FSDSSMDHFCKFLPTVGGQLGTAG [Q10C] : protein stability index was 2.06

Documented protein stability index of FSDSSCDHFQKFLPTVGGQLGTAG [M6C] : 1.96

The variant identified as FSDSSMDHNQKFLPTVGGQLGTAG [F9N] registered its protein stability index at 3.84

The variant listed as FSKSSMDHFQKFLPTVGGQLGTAG [D3K] shows protein stability index equal to 1.63

protein stability index for FSDSSMDHFQKFLPTVYGQLGTAG [G17Y] is 2.26

protein stability index measured on SSDSSMDHFQKFLPTVGGQLGTAG [F1S] = 4.12

Value of protein stability index reported for the variant TSDSSMDHFQKFLPTVGGQLGTAG [F1T] is 3.51

Value of measured protein stability index for the entry FSDSSMDHFQKFLPTVGGQLGTAV [G24V] : 2.42

GET /value?item= FSDSSMDHFQKFLPTVGGCLGTAG [Q19C] &field=protein stability index returns 1.96

So, FSDSSMDHPQKFLPTVGGQLGTAG [F9P] ? Its protein stability index was 4.38

According to the records, this variant WSDSSMDHFQKFLPTVGGQLGTAG [F1W] displays protein stability index of 2.56

Noted for FSDSSMDHFDKFLPTVGGQLGTAG [Q10D] : its protein stability index reads 3.15

So for FSDSSMDHFQKLLPTVGGQLGTAG [F12L] , the logged protein stability index turned out to be 2.88

protein stability index recorded for this variant, FSDSSMDHFQKFLPTVGGQLGTAT [G24T] , is 1.89

protein stability index recorded for this variant, FSDSSTDHFQKFLPTVGGQLGTAG [M6T] , is 2.58

protein stability index reading for FSDSSMDHGQKFLPTVGGQLGTAG [F9G] : 4.56

Summary for this variant, FSDSSMDHFQKFLPTVGGQLNTAG [G21N] : protein stability index is 2.98

FSDSSMDHFQKFLPTVGGQLGTCG [A23C] yielded protein stability index of 2.08

According to the records, this variant FSDSSMDHFQKFLPTVGGQNGTAG [L20N] displays protein stability index of 2.97

Field protein stability index (entry FSDSSMDHFQKTLPTVGGQLGTAG [F12T] ) reads 3.16

Query FSDSSMDHFQKFLPTVGTQLGTAG [G18T] yields protein stability index of 2.55

protein stability index reading for FSDSSMDHFQKFLPTVWGQLGTAG [G17W] : 2.03

Lab book: protein stability index of FSDSSMDHFQKFLPTVGGQLGTTG [A23T] noted as 2.59

The recorded protein stability index for entry FSDSSMDHFQKFLPTVGGQAGTAG [L20A] equals 2.58

# variant FSDSSMDHFQKFLPAVGGQLGTAG [T15A] ; its protein stability index = 2.64

// sample FSDKSMDHFQKFLPTVGGQLGTAG [S4K] , its protein stability index was 2.12

For FSDSSMDHFQKFLPTVGGQLLTAG [G21L] the variant record lists protein stability index as 2.71

The variant FSDSSFDHFQKFLPTVGGQLGTAG [M6F] showed protein stability index equal to 3.55

protein stability index reported for this variant FSHSSMDHFQKFLPTVGGQLGTAG [D3H] : 1.88

For FSDSSMDHFQKFLPTFGGQLGTAG [V16F] the variant record lists protein stability index as 2.75

Notebook: FSDSSMDHFQKFLPFVGGQLGTAG [T15F] , protein stability index read as 2.13

The recorded protein stability index for entry FSDSSMDHFQKFLPTVGVQLGTAG [G18V] equals 1.94

Sure, the documented protein stability index for FSDSSMDHFQKFLPTPGGQLGTAG [V16P] is 2.56

Just so you know, measured protein stability index for FSDSSMDHHQKFLPTVGGQLGTAG [F9H] came out at 2.57

Short answer for FSDTSMDHFQKFLPTVGGQLGTAG [S4T] : protein stability index was 2.65

Noted for FSDSSMDHTQKFLPTVGGQLGTAG [F9T] : its protein stability index reads 2.48

For this variant ( FSDSSMDHSQKFLPTVGGQLGTAG [F9S] ), measured protein stability index is 3.61

// sample FSDSSMDHFQKFLPTVGGQGGTAG [L20G] , its protein stability index was 3.24

protein stability index measured on FSDSSMDHFQCFLPTVGGQLGTAG [K11C] = 1.8

The variant listed as FSDSSMDHFQKFLPTVGGQWGTAG [L20W] has a reported protein stability index of 1.56

According to the records, this variant FSDSCMDHFQKFLPTVGGQLGTAG [S5C] displays protein stability index of 2.19

For record FSDSSMDHFQKFLPTVGGQLGCAG [T22C] the listed protein stability index is 1.81
